Provenance of the data: ChEMBL document CHEMBL3393039

Reported EC50 values follow for various compounds
Target: Peroxisome proliferator-activated receptor gamma (Homo sapiens, UniProt P37231)
Sequence (P37231 whole entry, the tested form may be a part): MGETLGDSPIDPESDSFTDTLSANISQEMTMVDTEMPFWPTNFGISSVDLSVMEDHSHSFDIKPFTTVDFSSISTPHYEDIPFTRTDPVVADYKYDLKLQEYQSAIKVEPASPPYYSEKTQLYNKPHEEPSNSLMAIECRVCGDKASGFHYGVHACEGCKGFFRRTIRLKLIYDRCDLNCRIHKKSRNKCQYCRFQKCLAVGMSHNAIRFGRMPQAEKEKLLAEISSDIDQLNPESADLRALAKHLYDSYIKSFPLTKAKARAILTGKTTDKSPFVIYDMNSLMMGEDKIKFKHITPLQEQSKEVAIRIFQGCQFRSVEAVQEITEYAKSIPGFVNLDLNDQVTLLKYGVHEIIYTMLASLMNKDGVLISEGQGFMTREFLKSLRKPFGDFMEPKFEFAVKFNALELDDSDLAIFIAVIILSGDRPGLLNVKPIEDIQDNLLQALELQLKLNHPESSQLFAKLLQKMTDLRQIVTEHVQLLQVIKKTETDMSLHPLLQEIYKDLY
Experiment: Transactivation of Gal4-tagged PPARgamma ligand binding domain (unknown origin) expressed in COS7 cells measured after overnight incubation by luciferase reporter gene assay

Compound | EC50, µM
CC(C)(C)c1ccc(C(=O)Nc2ccccc2C(=O)Nc2cccc(CCC(=O)O)c2)cc1 | 5
O=C(O)Cc1cccc(NC(=O)c2ccccc2NC(=O)c2ccc(-c3ccccc3)cc2)c1 | 2.6
O=C(O)CCCCNC(=O)c1ccccc1NC(=O)c1ccc2ccccc2c1 | 26
O=C(O)CCc1cccc(NC(=O)c2ccccc2NC(=O)c2ccc(C(F)(F)F)cc2)c1 | 6.9
Cc1ccc(NC(=O)c2ccccc2NC(=O)c2ccc(C(C)(C)C)cc2)cc1C(=O)O | 5
O=C(O)c1ccc(NC(=O)c2ccccc2NC(=O)c2ccc3ccccc3c2)cc1 | 21
O=C(O)CCCNC(=O)c1ccccc1NC(=O)c1ccc2ccccc2c1 | 18.1
O=C(O)Cc1cccc(NC(=O)c2ccccc2NC(=O)c2ccc3ccccc3c2)c1 | 18
O=C(O)c1cccc(NC(=O)c2ccccc2NC(=O)c2ccc(C(F)(F)F)c(F)c2)c1 | 6.9
O=C(O)Cc1cccc(NC(=O)c2ccccc2NC(=O)c2ccc(SC(F)(F)F)cc2)c1 | 4.4
O=C(O)c1cccc(NC(=O)c2ccccc2NC(=O)c2ccc(Br)cc2)c1 | 4.5
O=C(O)c1cccc(NC(=O)c2ccccc2NC(=O)c2ccc3c(c2)OCO3)c1 | 25
O=C(O)c1cccc(NC(=O)c2ccc(Cl)cc2NC(=O)c2ccc(C(F)(F)F)cc2)c1 | 8.7
O=C(O)c1cccc(NC(=O)c2cc(Cl)ccc2NC(=O)c2ccc(C(F)(F)F)cc2)c1 | 4.7
CC(C)(C)c1ccc(C(=O)Nc2ccccc2C(=O)Nc2ccc(Br)c(C(=O)O)c2)cc1 | 6.3
COc1ccc(C(=O)O)cc1NC(=O)c1ccccc1NC(=O)c1ccc(C(C)(C)C)cc1 | 4.5
CC(C)(C)c1ccc(C(=O)Nc2cc(Cl)ccc2C(=O)Nc2cccc(C(=O)O)c2)cc1 | 9
O=C(O)CCCNC(=O)c1ccccc1NC(=O)c1cccc(-c2ccccc2)c1 | 37
CC(C)(C)c1ccc(C(=O)Nc2ccccc2C(=O)Nc2ccc(Cl)c(C(=O)O)c2)cc1 | 5.4
O=C(O)CCCNC(=O)c1ccccc1NC(=O)c1ccccc1-c1ccccc1 | 23

* * *

Assay: Cytotoxic activity against human HepG2 cells assessed as LDH release at 10 uM after 48 hrs by LDH release assay (reference value: 100%)
Readout Name: LDH release (% cytotoxicity) at 48 h, 10 µM (%)

Compound | Value
O=C(O)Cc1cccc(NC(=O)c2ccccc2NC(=O)c2ccc(-c3ccccc3)cc2)c1 | -1
O=C(O)Cc1cccc(NC(=O)c2ccccc2NC(=O)c2ccc3ccccc3c2)c1 | 0.3
Cc1ccc(NC(=O)c2ccccc2NC(=O)c2ccc(C(C)(C)C)cc2)cc1C(=O)O | 2.2
Cc1ccc(C(=O)O)cc1NC(=O)c1ccccc1NC(=O)c1ccc(C(C)(C)C)cc1 | 0.7

* * *

Reported pEC50 values follow for various compounds
Biological target: Peroxisome proliferator-activated receptor alpha (Homo sapiens, UniProt Q07869)
Sequence (Q07869 whole entry, the tested form may be a part): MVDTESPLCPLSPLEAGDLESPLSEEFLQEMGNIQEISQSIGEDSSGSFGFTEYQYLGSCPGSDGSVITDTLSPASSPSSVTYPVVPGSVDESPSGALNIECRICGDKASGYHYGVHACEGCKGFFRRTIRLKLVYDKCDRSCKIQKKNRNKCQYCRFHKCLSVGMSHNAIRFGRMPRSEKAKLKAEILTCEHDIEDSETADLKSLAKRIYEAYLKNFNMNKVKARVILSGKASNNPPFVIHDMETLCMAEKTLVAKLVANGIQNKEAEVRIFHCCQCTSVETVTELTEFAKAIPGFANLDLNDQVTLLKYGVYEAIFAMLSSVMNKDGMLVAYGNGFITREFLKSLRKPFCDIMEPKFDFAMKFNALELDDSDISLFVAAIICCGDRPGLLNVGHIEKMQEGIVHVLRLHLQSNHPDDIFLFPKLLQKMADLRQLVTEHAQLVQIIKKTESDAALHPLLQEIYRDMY
Experiment: Transactivation of Gal4-tagged PPARalpha ligand binding domain (unknown origin) expressed in COS7 cells measured after overnight incubation by luciferase reporter gene assay
Assay type: cell-based, COS-7
pEC50: −log10 of the molar value.

Compound | pEC50
CC(C)(C)c1ccc(C(=O)Nc2ccccc2C(=O)Nc2ccc(Br)c(C(=O)O)c2)cc1 | 5.39
O=C(O)CCCNC(=O)c1ccccc1NC(=O)c1cccc(-c2ccccc2)c1 | 5.00
O=C(O)c1cccc(NC(=O)c2ccccc2NC(=O)c2ccc(C(F)(F)F)cc2)c1 | 5.24
O=C(O)c1cccc(NC(=O)c2ccc(Cl)cc2NC(=O)c2ccc(C(F)(F)F)cc2)c1 | 4.73
CCc1ccc(C(=O)Nc2ccccc2C(=O)NCCCC(=O)O)cc1 | 4.80
COc1ccc(C(=O)O)cc1NC(=O)c1ccccc1NC(=O)c1ccc(C(C)(C)C)cc1 | 5.54
O=C(O)c1cccc(NC(=O)c2ccccc2NC(=O)c2ccc3ccccc3c2)c1 | 5.71
Cc1ccc(NC(=O)c2ccccc2NC(=O)c2ccc(C(C)(C)C)cc2)cc1C(=O)O | 6.68
O=C(O)Cc1cccc(NC(=O)c2ccccc2NC(=O)c2ccc(SC(F)(F)F)cc2)c1 | 5.89
O=C(O)c1cccc(NC(=O)c2ccccc2NC(=O)c2ccc(Br)cc2)c1 | 5.44
